- test details: yeast display, Sf9 membrane polyspecificity reagent, FACS + sequencing; frameworks hold sequencing errors
metric: polyreactivity (PSR sort gate)

QVQLVESGGGLVQAGGSLRLSCAASGSTFYPNAMGWYRQAPGKERELVAAISRGTRTKYADSVKGRFTISRDNAKNTVYLQMNSLKPEDTAVYYCAKRYYGSPQLRYYYWGQGTQVTVSS ... high polyreactivity
QVQLVESGAGLVQEGGSLRLSCAASGRIFQTYTMGWYRQAPGKERELVAAISASGGRTYYADSVKGRFTISRDNAKNTVYLQMNSLKPEDTAVYYCAADIRGYDYWGQGTQVTVSS ... high polyreactivity

* * *

- test details: yeast display, Sf9 membrane polyspecificity reagent, FACS + sequencing; frameworks hold sequencing errors
metric: polyreactivity (PSR sort gate)

Please review the entries below; each comes with its answer.
QVQIVESGGGLVQAGGSLRLSCAASGSTFGRYAMGWYRQAPGKEREMVAAISASGGSTYYADSVKGRFTISRDYAKNTVYVQMNSLKPEDTAVYYCAALIDVITCQYDYWGHGTQVTVSS ... high polyreactivity
QVQLVESGGGLVQAGGSLRLSCAASGGTFSYYAMGWYRQAPGKERELVAAISKRGGSTYYADSVKGRFTISRDNAKNTVYLQMNSLKPEDTAVYYCARGYSWSVGYPRVQDMDYWGQGTQVTVSS ... high polyreactivity
QVQLVESGGGLVQAGGSLRLSCADSGSTFGYYAMGSYRQAPGKERELVAAITSTGRTKYADSVKGRVTISRDNAKNTVNLQMNSLKPEDTAVYYCAADIWGQGTQVTVSS ... high polyreactivity
QVQLVESGGGLVQAGGSLRLSCAASGRIFGVYVMGWYRQAPGKERELVAAISWSGSHTYYADSVKGRFTISRDNAKNTVYLQMNSLKPEDTAVYYCNADSYPDYTGPGLDWYDYWGQGTQVTVSS ... low polyreactivity

Data request: Quick check: polyreactivity (PSR sort gate) of `QVQLVDSGAGLVQAGGSLRLSCAASGRIFYSYAMGWYRQAPGKDRELVARITRGSSTYYADSVKGRFTISRDNAKNTVYLQMNSLKPEDTAVYYCAKSRYTALTNHWSHDYWGQVTQVTVSS` ?
Data returned: low polyreactivity
